test system: MS2 coat protein; test: apparent KD of MS2 coat protein; higher = weaker reporter binding; details: Eterna round: R107; input ligand: arginine 13.2 mM
Catalogue of apparent KD of MS2 coat protein readings, one per entry.
property_label: apparent KD of MS2 coat protein

1. UGUAUAUACGGAAGGAGCGUGUAAGAUUAAGAACAUGAGGAUCACCCAUGUUUUAAGGGAACACAGGUAGGUCGCCGUAUAUAUG [11.O] = 9.29 nM
2. GAGGCACGGUCGGCCGCCACUACAGCAGUGGUCCGCCAAGCGAGGUACAUGAGGAUCACCCAUGUUAGGACCGGGACCUGUUUUU [theeternabot_exclusion_MS2_Trp_B_27] = 20.2 nM
3. AACUGGACCAGUGAUACCAGAGACAUGAGGAUCACCCAUGUACAUGAGGAUCACCCAUGUCUCCCUUGGCAGCACAGCAGGGAGC [Exclusion Theophylline B Gf12] = 66 nM

----------
Let's look at some sequences and their measured apparent KD of K4 kissing-loop reporter.
tested on: K4 kissing-loop RNA reporter; test: apparent KD of K4 kissing-loop reporter; higher = weaker reporter binding; settings: Eterna round: R107; input ligand: tryptophan 2.4 mM;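 further: bound reporter read as fluorescence of individual clusters on recovered sequencing chips by microscopy, with normalized cluster intensities fitted with a binding model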
property_label: apparent KD of K4 kissing-loop reporter (nM)

1) AAGGCCACGAGAAGGAGCGUGUUGUGGAGUGAUGUUCCACUGUAGACCUAAGGUCUACAGGCACAGGUAGGUCGCUCGUGGUCAA [Omei KL Arginine B SS A v6] = 127
2) CCUAUCUCAUACGAUACCAGUGAAUAACCAGUGAUGUUGGAAUAACCAAGGAAUAUUUUACACCCUUGGCAGCGUAUGGGAUAGG [Ex Theophylline B K4 25] = 269
3) ACGUAGUUCUAGGAUACCAGCCAAGGCGCAGGACAAAAGUCCUGCGUCGCCAGUGAUGUUGGCCCUUGGCAGCCUAGAACUACGA [Omei KL Theo B Exc B v12] = 308
4) GCCGUAGAUUGAAGGAGCGUUCUUACUGAGUACGGCAACCGGAAGUGAUGUUUCCAGGUGGAACAGGUAGGUCGCAAUCUACGGC = 93.9
5) AAACUUGCAGUGAUGUUGCAAGUAGGUGAUACCAGCAUCGAAAGAUGCCCUUGGCAGCACCAACACUGCAAGUAAGUAUCACCAA [(H1)-(H2)-(T1)-(T2)-(H)'-(T)'_Design1] = 111
6) UUGAGUGAUGUUCAAUUAAUGUGCAACGAUACCAGCUCAUAUGCUAGCCCUUGGCAGCGUGGUAACGUAAUUUUAUCAAAUGAUA [theeternabot_exclusion_KL_Theo_A_39] = 145
7) GGAAGAAGUGGUGUUGAUUAAGAAGCGGAAGGAGCGCCGAAGAAGGCAGGUAGGUCGCCGAAAUAUAGUGAUGUUAUAUAAAAGG [ExArg.A] = 199
8) AAAUGCUUGUAUUUGAACAAUUCCUUUAGGGAGGAUAUUGGUAAUACAAGAAGGCCCUGAUGGGAGUGAUGUUCCCAUAACGCGG [Exclusion FMN A GF16] = 91.1
9) GCCGUACGCAUGGAUACCAGCAGAACUGCCCUCCCAGUGAUGUUGGGAGGAUCUUUCCUUUGCCCUUGGCAGCCAUGCGUACGGC = 117
10) AUAGGAGUGAUGUUCCUUAGUUUCUCCGAUACCAGUAUGGAAACAUACCCUUGGCAGCGGGAAACCGCUGAUUAGGAAACUAGUC [Theophylline A K4 7] = 223
11) GGAUAGGAUAGAGGAUAUGGGCUAGGCAAGAAUAACUUGUCUAGCAAAUCCAUGAGGAGUGAUGUUCCAGAAGGCUGUCCUAUCG [FmnBX 1 U9] = 128
12) AAUAACUAGUAUAUUUUUAAUAAUACAGAUACCAGUGAUAAUAAACACCCUUGGCAGCUGAUCGAGUGAUGUUCGUUUAUUUUAA [JR_SSTheophyA_Sub002] = 66.2
